Target: human IBAT (Homo sapiens, UniProt Q12908)
Construct: expressed in transfected cells; host or cells: Baby hamster kidney (BHK) cells, clone H14
Sequence (Q12908 whole entry): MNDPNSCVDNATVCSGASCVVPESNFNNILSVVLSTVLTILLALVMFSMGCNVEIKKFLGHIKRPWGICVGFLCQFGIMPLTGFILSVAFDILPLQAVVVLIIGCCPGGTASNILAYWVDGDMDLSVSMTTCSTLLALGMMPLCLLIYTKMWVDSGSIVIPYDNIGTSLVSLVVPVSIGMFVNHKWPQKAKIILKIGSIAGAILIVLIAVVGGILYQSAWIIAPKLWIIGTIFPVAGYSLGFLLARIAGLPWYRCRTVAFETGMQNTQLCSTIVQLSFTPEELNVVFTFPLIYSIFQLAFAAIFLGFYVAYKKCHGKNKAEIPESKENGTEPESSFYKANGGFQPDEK
Assay: In vitro assay of IBAT-mediated uptake of [14C]-taurocholate (TC) in H14 cells
Assay type: cell-based
Conditions: read-out: Human TC IC50
Method: In Vitro Assay of Compounds that Inhibit IBAT-Mediated Uptake of [^14C]-Taurocholate (TC) in H14 Cells Baby hamster kidney cells (BHK) transfected with the cDNA of human IBAT (H14 cells) are seeded at 60,000 cells/well in 96 well Top-Count tissue culture plates for assays run within in 24 hours of seeding, 30,000 cells/well for assays run within 48 hours, and 10,000 cells/well for assays run within 72 hours. […]
Quantity Kind: pIC50
pIC50 is defined as minus the log10 of a concentration measured in mol/L.

- CCCCC1(CCCC)CS(=O)(=O)c2ccc(N(C)C)cc2C(c2cccc(OCCOCCOCC[n+]3ccc(C)cc3)c2)C1O (stereo not shown): 8.22
- CCCC[C@]1(CC)CS(=O)(=O)c2cc(O)ccc2[C@@H](c2ccccc2)[C@H]1O: 7.05
- CCCCC1(CCCC)CS(=O)(=O)c2c(cccc2N2CCOCC2)C(c2ccc(OC)cc2)C1O (single isomer, unassigned) [Example 1307]: 5.51
- CCCCC1(CCCC)CS(=O)(=O)c2ccc(N(C)C)cc2C(c2ccc(OCCOCCOCC[N+](C)(C)C)c(F)c2)C1O (stereo not shown): 8.70
- CCCCC1(CCCC)CS(=O)(=O)c2ccc([N+](C)(C)C)cc2C(c2ccc(OC)cc2)C1O (stereo not shown): 6.46
- CCCCC1(CCCC)CS(=O)(=O)c2ccc(N(C)C)cc2C(c2cccc(OCCOCCOCC[N+](C)(C)CCN(CC)S(=O)(=O)c3ccccc3)c2)C1O (stereo not shown): 7.96

Then there is this compound:
For CCCCC1(CC)CS(=O)(=O)c2ccc(N3CCOCC3)cc2C(c2ccc(F)cc2)C1O (stereo not shown) the compound record lists pIC50 as 7.10

---

target: human IBAT (Homo sapiens); construct: expressed in transfected cells; host or cells: Baby hamster kidney (BHK) cells, clone H14; assay: In vitro assay of IBAT-mediated uptake of [14C]-taurocholate (TC) in H14 cells; type: cell-based; conditions: read-out: Human TC IC50
Threshold-based label: IC50 under 40 nM gives met, IC50 not under 40 nM gives not met.

Record excerpt, results attached:
- CCCCC1(CCCC)CS(=O)(=O)c2ccc(N(C)C)cc2C(c2ccc(OCC[N+](C)(C)C)cc2)C1O (stereo not drawn) [Example 1303]: not met
- CCCCC1(CCCC)CS(=O)(=O)c2c(cc(N(C)C)cc2N(C)C)C(c2ccc(F)cc2)C1O (stereo not drawn) [Example 1075]: met
- CCCCC1(CCCC)CS(=O)(=O)c2ccc(NN(C)C)cc2C(c2cccc(OC)c2)C1O (stereo not drawn) [Example 1140]: met
- CCCCC1(CCCC)CS(=O)(=O)c2ccc(N(C)C)cc2C(c2cccc(OCCOCCOCC[N+](CC)(CC)CCNC(=O)N(C)C)c2)C1O (stereo not drawn) [Example 1372]: met
- CCCCC1(CCCC)CS(=O)(=O)c2ccc([N+](C)(C)C)cc2C(c2ccc(O)cc2)C1O (stereo not drawn) [Example 1168]: not met
- CCCCC1(CCCC)CS(=O)(=O)c2ccc(N(C)C)cc2C(c2cc(Cl)c(OC)c(Cl)c2)C1O (stereo not drawn) [Example 1161]: not met

Take the compound CCCCC1(CCCC)CS(=O)(=O)c2c(O)cccc2C(c2cccc(O)c2)C1O (stereo not drawn) [Example 1302] and say whether its IC50 is less than 40 nM.
not met

Take the compound CCCCC1(CCCC)CS(=O)(=O)c2ccc(N(C)CC)cc2C(c2cccc(OC)c2)C1O (stereo not drawn) [Example 1150] and say whether its IC50 is less than 40 nM.
met

Take the compound CCCCC1(CCCC)CS(=O)(=O)c2ccc(Br)cc2C(c2ccccc2Br)C1O (stereo not drawn) [Example 1190] and say whether its IC50 is less than 40 nM.
not met

Take the compound CCCCC1(CCCC)CS(=O)(=O)c2c(NC(C)(C)C)cccc2C(c2ccc(F)cc2)C1O (stereo not drawn) [Example 1258] and say whether its IC50 is less than 40 nM.
not met

Take the compound CCCCC1(CCCC)CS(=O)(=O)c2ccc(N(C)C)cc2C(c2ccccn2)C1O (stereo not drawn) [Example 1082] and say whether its IC50 is less than 40 nM.
met

Take the compound CCCCC1(CC)CS(=O)(=O)c2ccc(OC)cc2C(c2ccccc2F)C1O (stereo not drawn) [Example 280] and say whether its IC50 is less than 40 nM.
not met

Take the compound CCCCCCCC[N+](CCCCCCCC)(CCCCCCCC)CCOCCOCCOc1cccc(C2c3cc(N(C)C)ccc3S(=O)(=O)CC(CCCC)(CCCC)C2O)c1 (stereo not drawn) [Example 1289] and say whether its IC50 is less than 40 nM.
met

Take the compound CCCCC1(CC)CS(=O)(=O)c2ccc(N(C)C)cc2C(c2ccc(OC)cc2)C1O (stereo not drawn) [Example 1131] and say whether its IC50 is less than 40 nM.
met

Origin of the recorded values: patent US6784201B2
